Tested on: HT29 colon
Procedure Text: NCI-60 one-dose screen, 48 h (100 = growth as untreated, 0 = no growth, -100 = all killed)
Test Parameters: 10 µM unless noted
Compounds without any hit were thinned out: in the full panel of roughly 83,000, 20% have a hit.
Recorded Metric: growth (%)
Your answer should be a plain number; it is taken to be in %.

[
  {
    "Compound": "Nc1ccc2c(c1)Cc1cc(N)ccc1-2",
    "Recorded Metric": "growth",
    "Uom": "%",
    "Result": 98.8
  },
  {
    "Compound": "C=CC1CN2CCC1CC2C(O)c1ccnc2ccccc12 (stereo not drawn)",
    "Recorded Metric": "growth",
    "Uom": "%",
    "Result": 115
  }
]

Let us examine a further case.
INPUT: Quick check: growth of COc1ccc2c(c1)C1(C)CCN(C)CC(C1)C2O (stereo not drawn) ?
OUTPUT: 98.5

Data provenance: PubChem BioAssay (NCI)
